Exercise: state measured EC50 for each of the binders provided.
Target: T1, recombinant cynomolgus monkey (Macaca fascicularis) TfR1 (cynomolgus monkey (Macaca fascicularis), UniProt Q5RDH6 87-760 (Pongo abelii entry), limits assumed)
T1 construct: Recombinant protein; also called cTfR1; cyTfR1
T1 chain: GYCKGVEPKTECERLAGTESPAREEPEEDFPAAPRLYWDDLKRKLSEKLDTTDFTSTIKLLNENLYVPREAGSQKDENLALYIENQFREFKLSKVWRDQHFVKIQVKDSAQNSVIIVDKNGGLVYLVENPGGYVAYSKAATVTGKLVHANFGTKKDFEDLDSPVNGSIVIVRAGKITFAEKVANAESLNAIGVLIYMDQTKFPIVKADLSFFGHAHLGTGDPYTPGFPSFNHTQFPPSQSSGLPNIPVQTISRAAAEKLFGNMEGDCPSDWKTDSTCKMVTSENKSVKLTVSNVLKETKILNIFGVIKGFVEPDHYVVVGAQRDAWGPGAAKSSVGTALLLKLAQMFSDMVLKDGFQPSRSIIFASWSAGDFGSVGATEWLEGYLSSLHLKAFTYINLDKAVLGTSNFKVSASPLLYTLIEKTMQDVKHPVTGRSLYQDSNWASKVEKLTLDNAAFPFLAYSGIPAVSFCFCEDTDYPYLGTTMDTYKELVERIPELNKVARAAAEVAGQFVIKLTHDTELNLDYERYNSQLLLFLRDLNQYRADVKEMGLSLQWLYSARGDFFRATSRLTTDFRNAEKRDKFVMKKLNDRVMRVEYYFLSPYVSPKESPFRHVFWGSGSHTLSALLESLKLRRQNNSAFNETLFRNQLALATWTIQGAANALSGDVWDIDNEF
Experiment: ELISA, recombinant TfR1 coated, Fab-ASO300 conjugate (row 'Conjugate binding affinity ELISA')
One number for each entry, in nM.

Consider the following illustrative entries.
Binder	EC50, nM
conjugate of humanized anti-TfR Fab 3A4 VH3/Vκ4 with DMPK-targeting oligonucleotide ASO300 (Fab, V domains shown, oligonucleotide ASO300 conjugated to the Fab via linker; residue and chain not stated, also called 3A4 (VH3/Vk4) conjugate) VH: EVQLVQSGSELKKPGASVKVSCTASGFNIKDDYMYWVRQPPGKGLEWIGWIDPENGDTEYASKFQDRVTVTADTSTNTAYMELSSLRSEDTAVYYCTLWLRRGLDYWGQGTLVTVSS VL: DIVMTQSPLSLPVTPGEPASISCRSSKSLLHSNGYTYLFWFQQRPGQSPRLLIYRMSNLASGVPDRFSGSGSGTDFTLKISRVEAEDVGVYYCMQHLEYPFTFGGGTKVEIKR	7.6
conjugate of humanized anti-TfR Fab 3A4 VH3 (N54T)/Vκ4 with DMPK-targeting oligonucleotide ASO300 (Fab, V domains shown, oligonucleotide ASO300 conjugated to the Fab via linker; residue and chain not stated, also called 3A4 (VH3-N54T/Vk4) conjugate) VH: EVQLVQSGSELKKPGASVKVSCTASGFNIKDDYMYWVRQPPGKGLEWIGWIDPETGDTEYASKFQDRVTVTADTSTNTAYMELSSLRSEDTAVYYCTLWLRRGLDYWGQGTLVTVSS VL: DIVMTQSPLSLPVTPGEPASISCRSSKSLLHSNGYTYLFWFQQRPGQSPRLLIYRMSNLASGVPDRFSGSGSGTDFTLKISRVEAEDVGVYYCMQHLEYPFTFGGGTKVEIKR	4.7
conjugate of humanized anti-TfR Fab 3M12 VH3/Vκ2 with DMPK-targeting oligonucleotide ASO300 (Fab, V domains shown, oligonucleotide ASO300 conjugated to the Fab via linker; residue and chain not stated, also called 3M12 (VH3/Vk2) conjugate) VH: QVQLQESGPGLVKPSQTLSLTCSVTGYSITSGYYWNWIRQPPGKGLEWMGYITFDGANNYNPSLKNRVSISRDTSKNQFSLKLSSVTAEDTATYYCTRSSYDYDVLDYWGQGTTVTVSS VL: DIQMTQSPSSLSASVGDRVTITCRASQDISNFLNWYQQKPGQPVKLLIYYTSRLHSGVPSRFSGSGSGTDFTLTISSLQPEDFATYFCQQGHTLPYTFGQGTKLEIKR	2.9
conjugate of humanized anti-TfR Fab 5H12 VH5 (C33D)/Vκ4 with DMPK-targeting oligonucleotide ASO300 (Fab, V domains shown, oligonucleotide ASO300 conjugated to the Fab via linker; residue and chain not stated, also called 5H12 (VH5-C33D/Vk4) conjugate) VH: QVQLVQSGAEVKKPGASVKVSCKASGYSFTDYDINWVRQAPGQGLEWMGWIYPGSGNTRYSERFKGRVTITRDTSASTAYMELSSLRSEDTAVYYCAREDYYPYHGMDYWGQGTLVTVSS VL: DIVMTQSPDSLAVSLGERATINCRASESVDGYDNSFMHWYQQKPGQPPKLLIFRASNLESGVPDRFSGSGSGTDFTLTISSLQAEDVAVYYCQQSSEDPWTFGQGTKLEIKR	10.2

For every record below, what is its EC50?
1. conjugate of humanized anti-TfR Fab 5H12 VH5 (C33Y)/Vκ3 with DMPK-targeting oligonucleotide ASO300 (Fab, V domains shown, oligonucleotide ASO300 conjugated to the Fab via linker; residue and chain not stated, also called 5H12 (VH5-C33Y/Vk3) conjugate) VH: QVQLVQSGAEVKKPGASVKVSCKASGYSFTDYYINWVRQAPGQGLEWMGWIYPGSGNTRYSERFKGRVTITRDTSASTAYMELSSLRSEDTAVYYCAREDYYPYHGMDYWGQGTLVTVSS VL: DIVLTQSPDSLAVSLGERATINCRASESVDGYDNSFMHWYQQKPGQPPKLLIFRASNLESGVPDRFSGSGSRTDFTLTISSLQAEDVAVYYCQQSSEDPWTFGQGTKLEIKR
2. conjugate of humanized anti-TfR Fab 3A4 VH3 (N54S)/Vκ4 with DMPK-targeting oligonucleotide ASO300 (Fab, V domains shown, oligonucleotide ASO300 conjugated to the Fab via linker; residue and chain not stated, also called 3A4 (VH3-N54S/Vk4) conjugate) VH: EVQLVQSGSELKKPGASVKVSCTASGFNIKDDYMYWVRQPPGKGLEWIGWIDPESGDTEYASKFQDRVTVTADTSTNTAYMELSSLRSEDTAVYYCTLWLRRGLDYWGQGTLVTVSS VL: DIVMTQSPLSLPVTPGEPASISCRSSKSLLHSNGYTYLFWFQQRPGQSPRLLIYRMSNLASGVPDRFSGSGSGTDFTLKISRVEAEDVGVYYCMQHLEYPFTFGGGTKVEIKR
3. conjugate of humanized anti-TfR Fab 3M12 VH4/Vκ3 with DMPK-targeting oligonucleotide ASO300 (Fab, V domains shown, oligonucleotide ASO300 conjugated to the Fab via linker; residue and chain not stated, also called 3M12 (VH4/Vk3) conjugate) VH: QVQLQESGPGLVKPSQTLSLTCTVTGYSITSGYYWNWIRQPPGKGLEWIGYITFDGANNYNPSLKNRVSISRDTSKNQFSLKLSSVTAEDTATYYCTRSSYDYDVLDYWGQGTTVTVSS VL: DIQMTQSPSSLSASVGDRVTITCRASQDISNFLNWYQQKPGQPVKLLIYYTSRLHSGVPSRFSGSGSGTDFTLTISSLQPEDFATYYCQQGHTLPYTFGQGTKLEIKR
4. conjugate of humanized anti-TfR Fab 5H12 VH5 (C33Y)/Vκ4 with DMPK-targeting oligonucleotide ASO300 (Fab, V domains shown, oligonucleotide ASO300 conjugated to the Fab via linker; residue and chain not stated) VH: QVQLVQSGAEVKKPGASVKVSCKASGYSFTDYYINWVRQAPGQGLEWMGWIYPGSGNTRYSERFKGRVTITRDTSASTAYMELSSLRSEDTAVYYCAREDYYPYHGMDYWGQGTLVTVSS VL: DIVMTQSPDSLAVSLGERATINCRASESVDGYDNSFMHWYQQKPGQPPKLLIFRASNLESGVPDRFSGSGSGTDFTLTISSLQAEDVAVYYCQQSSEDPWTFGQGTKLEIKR

[2.3, 7.8, 2.1, 3.3]
